Molecular target: HLA-A*02:01 (Homo sapiens, UniProt P04439, D140Y/D185E/D98H/E176V/E277Q/G131W/G231S/I119V/I121R/I166T/I218V/L300P/L318F/N151K/N90K/P208A/P217A/Q86G/Q94H/R138H/R169H/T345S)
Assay: REVEAL Epitope Discovery System in vitro MHC-peptide binding assay
Conditions: binding normalized to positive control peptide set at 100%, greater than 50 considered good or high affinity binding
measuredParameter: A*02:01 In Vitro Score
Give the figure only, with no unit attached.

According to the records, this compound CC(C)C[C@H](NC(=O)CNC(=O)[C@H](CCCNC(=N)N)NC(=O)[C@H](CCCCN)NC(=O)[C@@H](NC(=O)[C@H](Cc1c[nH]c2ccccc12)NC(=O)[C@@H](N)Cc1ccccc1)C(C)C)C(=O)N[C@@H](CCCCN)C(=O)N[C@@H](CCCCN)C(=O)O displays A*02:01 In Vitro Score of 9.40

Memo: CC[C@H](C)[C@H](N)C(=O)N[C@@H](Cc1ccccc1)C(=O)N[C@@H](Cc1c[nH]c2ccccc12)C(=O)N[C@H](C(=O)N[C@@H](CCCCN)C(=O)N[C@@H](CCCNC(=N)N)C(=O)NCC(=O)N[C@@H](CC(N)=O)C(=O)N[C@@H](CCCCN)C(=O)O)C(C)C , reported A*02:01 In Vitro Score: 3.50

Measured A*02:01 In Vitro Score of CC[C@H](C)[C@H](N)C(=O)N[C@H](C(=O)N[C@@H](Cc1ccccc1)C(=O)N[C@@H](Cc1c[nH]c2ccccc12)C(=O)N[C@H](C(=O)N[C@@H](CCCCN)C(=O)N[C@@H](CCCNC(=N)N)C(=O)NCC(=O)N[C@@H](CO)C(=O)O)C(C)C)[C@@H](C)CC : 13.60

Consider CC(C)[C@H](NC(=O)[C@@H](N)Cc1c[nH]c2ccccc12)C(=O)N[C@@H](CCC(N)=O)C(=O)N[C@@H](CCCNC(=N)N)C(=O)NCC(=O)N[C@@H](CC(N)=O)C(=O)N[C@@H](CCCCN)C(=O)N[C@@H](CCCCN)C(=O)N[C@@H](CO)C(=O)O . Its measured A*02:01 In Vitro Score is 1.20

For record CC[C@H](C)[C@H](N)C(=O)N[C@H](C(=O)N[C@@H](Cc1ccccc1)C(=O)N[C@@H](Cc1c[nH]c2ccccc12)C(=O)N[C@H](C(=O)N[C@@H](C)C(=O)N[C@@H](CCCNC(=N)N)C(=O)NCC(=O)N[C@@H](CCCNC(=N)N)C(=O)O)C(C)C)[C@@H](C)CC the listed A*02:01 In Vitro Score is 9.60

Reported A*02:01 In Vitro Score of CC[C@H](C)[C@H](N)C(=O)N[C@H](C(=O)N[C@@H](Cc1ccccc1)C(=O)N[C@@H](Cc1c[nH]c2ccccc12)C(=O)N[C@H](C(=O)N[C@@H](CC(C)C)C(=O)N[C@@H](CCCNC(=N)N)C(=O)NCC(=O)N[C@@H](CCCNC(=N)N)C(=O)O)C(C)C)[C@@H](C)CC : 8.40

Record CC[C@H](C)[C@H](N)C(=O)N[C@@H](Cc1ccccc1)C(=O)N[C@@H](Cc1c[nH]c2ccccc12)C(=O)N[C@H](C(=O)N[C@@H](CCCCN)C(=O)N[C@@H](CCCNC(=N)N)C(=O)NCC(=O)N[C@@H](Cc1c[nH]cn1)C(=O)N[C@@H](CCCCN)C(=O)O)C(C)C , field A*02:01 In Vitro Score: 2.20

// A*02:01 In Vitro Score value for CC(C)[C@H](NC(=O)[C@H](Cc1c[nH]c2ccccc12)NC(=O)[C@@H](N)Cc1ccccc1)C(=O)N[C@@H](C)C(=O)N[C@@H](CCCNC(=N)N)C(=O)NCC(=O)N[C@@H](CCCNC(=N)N)C(=O)N[C@@H](CCCCN)C(=O)N[C@@H](CCCCN)C(=O)O : 13.50

Field A*02:01 In Vitro Score (entry CC(C)C[C@H](NC(=O)[C@H](CCCCN)NC(=O)[C@H](CCCCN)NC(=O)[C@H](CO)NC(=O)CNC(=O)[C@H](CCCNC(=N)N)NC(=O)[C@H](CCC(N)=O)NC(=O)[C@@H](NC(=O)[C@@H](N)Cc1c[nH]c2ccccc12)C(C)C)C(=O)O ) reads 4.40

Just so you know, measured A*02:01 In Vitro Score for CC(C)C[C@H](NC(=O)[C@H](CCCCN)NC(=O)[C@H](CCCCN)NC(=O)[C@H](CCCNC(=N)N)NC(=O)CNC(=O)[C@H](CCCNC(=N)N)NC(=O)[C@H](CCC(N)=O)NC(=O)[C@@H](NC(=O)[C@@H](N)Cc1c[nH]c2ccccc12)C(C)C)C(=O)O came out at 8.10
